- Test system: Mycobacterium tuberculosis
- ASSAY NOTES: Cornell - Phenotypic assay to identify agents that inhibit growth of Mycobacterium tuberculosis
- Assay type: functional
- Design: scale not given: direction of the effect not stated beside the values
- REPORTED CONDITIONS: 10 mM as filed; unlikely as a test dose
The campaign covered roughly 53,000 compounds. About 900 (1.7%) showed an effect of 50% or more. For the sample, strong results were picked, then their nearest neighbours and some compounds at random.
RECORDED METRIC: Percent Effect (%)
# number only, unit % dropped from output

Cc1nc(-c2cccc(N3CCC(NC4CCOCC4)CC3)c2)cs1 ... 35.61
CCS(=O)(=O)N1CCC2(CC1)CN(c1cccnc1)C(=O)CO2.O=C(O)C(F)(F)F ... -1.862
O=C(O)c1c(Cl)ncn1-c1cccc2ccccc12 ... 19.97
Cc1cccc(CN2CCC(C3Nc4ccccc4S(=O)(=O)N3)CC2)n1 (stereo not drawn) ... -13.88
c1cc(-c2cscn2)cc(N2CCC(NCCc3cccs3)CC2)c1 ... 60.71
CC(=O)N1CC[C@@H]2O[C@@H](COCC(=O)N3CCCC3)CC[C@@H]21 ... -45.3
Cn1c(Cn2cccn2)nnc1C1CCN(Cc2cccnc2)CC1 ... -9.114
O=C(C1CCCO1)N1C[C@@H]2CCN(c3cnccn3)C[C@@H]2C1.O=C(O)C(F)(F)F (stereo partly drawn) ... 30.53
O=C(O)c1cc(/C=C/c2cccc3ccccc23)ncn1 ... 65.34
N#Cc1ccc(C(=O)O)nc1/C=C/c1cccc(F)c1 ... 2.587

Any idea what Percent Effect was measured for O=C(c1ccc(-n2cnnc2)cc1)N1CCCC(n2ccnc2)C1 (stereo not drawn) ? 15.63

Any idea what Percent Effect was measured for CCS(=O)(=O)N1CCCn2cnc(COc3cccnc3)c2C1.O=C(O)C(F)(F)F ? 13.68

Any idea what Percent Effect was measured for Cc1noc(Cl)c1CCC(=O)N1CCCCC1Cn1cccn1 (stereo not drawn) ? -3.884
